Molecular target: human GLP-1 receptor (human, UniProt P43220 24-463)
Assay: cell-based or functional assay
Positions of bridges follow the written chain, without caps; N, C: chain ends. Non-standard residues stand in square brackets, D forms with d. No end group written: not given here. *: point of attachment. Acetyl(2-(4-imidazolyl)) = O=C(Cc1c[nH]cn1)*; Aib = CC(C)(N)C(=O)O
Classify by In vitro activity (%) compared with native peptide: vs GLP-1. Ranges: low value = under 10%, medium value = from 10% up to 20%, high value = 20% and over

binder	assignedCategory
{Acetyl(2-(4-imidazolyl))}-[Aib]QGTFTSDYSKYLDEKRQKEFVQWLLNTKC (bridge 15-19; not fully specified) [triple agonist of SEQ ID NO: 88]	low value
Y[Aib]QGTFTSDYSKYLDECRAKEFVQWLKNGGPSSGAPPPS (bridge 16-20) [triple agonist of SEQ ID NO: 24]	high value
Y[Aib]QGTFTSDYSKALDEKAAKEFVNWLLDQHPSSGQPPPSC (bridge 16-20) [triple agonist of SEQ ID NO: 101]	high value
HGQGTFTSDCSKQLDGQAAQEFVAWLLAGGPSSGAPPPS (ends and bridges not checked) [triple agonist of SEQ ID NO: 44]	low value
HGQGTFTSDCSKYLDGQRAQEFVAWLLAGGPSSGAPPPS (ends and bridges not checked) [triple agonist of SEQ ID NO: 47]	low value
H[Aib]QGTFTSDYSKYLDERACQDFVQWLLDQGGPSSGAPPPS (not fully specified) [triple agonist of SEQ ID NO: 27]	high value
Y[Aib]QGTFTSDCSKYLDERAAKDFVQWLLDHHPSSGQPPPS (bridge 16-20; not fully specified) [triple agonist of SEQ ID NO: 72]	medium value
{Acetyl(2-(4-imidazolyl))}-[Aib]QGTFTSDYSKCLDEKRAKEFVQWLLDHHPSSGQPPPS (bridge 15-19; not fully specified) [triple agonist of SEQ ID NO: 74]	medium value
Y[Aib]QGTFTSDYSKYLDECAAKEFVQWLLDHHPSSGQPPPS (bridge 16-20; not fully specified) [triple agonist of SEQ ID NO: 64]	high value
{Acetyl(2-(4-imidazolyl))}-[Aib]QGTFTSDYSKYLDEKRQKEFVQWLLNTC (bridge 15-19; not fully specified) [triple agonist of SEQ ID NO: 81]	low value
